Assay: amyloid nucleation score (Sup35N fusion, yeast selection) (log enrichment); library NNK3; higher = more nucleation; inactive = no reads after selection;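 further: zero at mode of non-aggregating sequences after 7 days selection at 30°C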
observed-property: amyloid nucleation score

Below, each entry is followed by its recorded amyloid nucleation score result.
1) MIQGSVYPFHLCHLYDISHE : inactive
2) NYLFRT : inactive
3) LLGLCRVLW : 1.31
4) NCKLFFSFGM : 1.49

Req: # input substance: EMDTCIQWLSRVLSGPDSFF ; wanted: its amyloid nucleation score
Resp: -0.72

Req: # input substance: DVGAPCGRFRPHFTNTCLDV ; wanted: its amyloid nucleation score
Resp: inactive

Req: # input substance: SNFINVGSRLMTSWRGYAYM ; wanted: its amyloid nucleation score
Resp: inactive

Req: # input substance: GHWTLDYEFKYPYGQQYHVP ; wanted: its amyloid nucleation score
Resp: inactive

Req: # input substance: TPLITYHQWFLAICEWLDF ; wanted: its amyloid nucleation score
Resp: inactive

Req: # input substance: CFVGHADLKFMGFHWMVGEC ; wanted: its amyloid nucleation score
Resp: inactive

Req: # input substance: YDVFLIL ; wanted: its amyloid nucleation score
Resp: inactive

Req: # input substance: DFRGDLFELMMIYGRGMVLT ; wanted: its amyloid nucleation score
Resp: inactive

Req: # input substance: GINHNGRVECNRFKMNY ; wanted: its amyloid nucleation score
Resp: inactive

Taken from the supplement of paper PMC12042874.
